The measured values listed here are drawn from patent US20180009871A1.

biological target: human glucagon receptor (GCGR) (human, UniProt P47871 26-477); test: cell-based or functional assay
Where no end group is shown, it is not given here.
observed-property: hGCGR pEC50 (cAMP) (pEC50)
# number only, unit pEC50 dropped from output

{"columns": ["binder", "unit-of-measure", "hGCGR pEC50 (cAMP)"],
 "data": [
  ["YSHGTFTSDYSKWLDSARAQEFVKWLEDEPSSGAPPPS-OH [Compound A38]", "pEC50", 13.7]
]}

Next up:
response.value for YSHGTFTSDHSKWLDSARAQEFVKWLEDEPSSGAPPPS-OH [Compound A40] (field: hGCGR pEC50 (cAMP)) = 10.1
